- Tested on: Sinapis arvensis (SINAR)
- ASSAY_METHOD_TEXT: B2 Post-Emergence Efficacy - Test 2
- Type: in vivo
- MEASUREMENT_CONDITIONS: 60 g/Ha, 15 days after application, 0-100 scale
Parameter Herbicidal activity SINAR: see the listing below.
Number, no unit, nothing else.

The following compounds have reported results that may help.
{"SMILES_NOTATION": "Cc1nn(C)c(=O)c(-c2c(F)ccc(Cl)c2CCc2ccc(C#N)cc2)c1O", "Herbicidal activity SINAR": 80}
{"SMILES_NOTATION": "Cc1nn(C)c(=O)c(-c2c(F)ccc(Cl)c2CCc2ccccc2C(F)(F)F)c1O", "Herbicidal activity SINAR": 80}
{"SMILES_NOTATION": "Cc1nn(C)c(=O)c(-c2c(F)ccc(Cl)c2CCc2ccc(C(F)(F)F)nc2)c1O", "Herbicidal activity SINAR": 90}
{"SMILES_NOTATION": "Cc1nn(C)c(=O)c(-c2c(F)ccc(Cl)c2CCc2ccc(F)cc2)c1OC(=O)C(C)C", "Herbicidal activity SINAR": 80}
{"SMILES_NOTATION": "Cc1nn(C)c(=O)c(-c2c(F)ccc(Cl)c2CCc2ccc(F)cc2)c1O", "Herbicidal activity SINAR": 80}

The record that follows has no Herbicidal activity SINAR shown yet.
Noted for Cc1nn(C)c(=O)c(-c2c(F)ccc(Cl)c2CCc2ccc(Cl)cc2)c1OC(=O)C(C)C : its Herbicidal activity SINAR reads 90
